Values from PubChem BioAssay (NCI)

# System: U251 CNS
# TEST NAME: NCI-60 one-dose screen, 48 h (100 = growth as untreated, 0 = no growth, -100 = all killed)
# APPLIED CONDITIONS: 10 µM unless noted
The panel holds about 83,000 compounds, 20% with a hit somewhere; the sample as a whole holds those more often.
Lab note: anything with growth below 30% is marked T; values at 30% or higher are marked F.

[[record]]
molecule = "CCCCN(CCCC)CCC(C)(O)c1cc2ccccc2c2ccccc12 (stereo not drawn)"
group_label = "F"

[[record]]
molecule = "COc1cc(/C=C2\\CN(C(=O)CCN3CCC(=NO)CC3)C/C(=C\\c3cc(OC)c(OC)c(OC)c3)C2=O)cc(OC)c1OC"
group_label = "T"

[[record]]
molecule = "COc1cc(C2CC(=O)Nc3c2c(C)nn3-c2nc3ccccc3[nH]2)cc(OC)c1OC (stereo not drawn)"
group_label = "F"

[[record]]
molecule = "CN1CCN(Cc2ccc(NC(=O)c3cncc(C#Cc4cnc(N)c5cccnc45)c3)cc2C(F)(F)F)CC1"
group_label = "F"

[[record]]
molecule = "CCCCCCCCCCCCNC(=O)[C@H]1CSC(c2ccc(OC)c(F)c2)N1 (stereo partly drawn)"
group_label = "T"

[[record]]
molecule = "N=c1c2ccccc2nc2n1CCCCC2"
group_label = "F"

[[record]]
molecule = "CC(=O)C1=C(O)C=C2Oc3c(C(=O)/C=C/c4cc(Cl)cc(Cl)c4)c(O)c(C)c(O)c3[C@]2(C)C1=O"
group_label = "T"

[[record]]
molecule = "CC(=O)O[C@H]1CC[C@]2(C)[C@H]3CC[C@@H]4[C@H]5[C@H](C(C)C)CC[C@]5(C(=O)OCC(CO)(CO)N=C(N)N)CC[C@@]4(C)[C@]3(C)CC[C@H]2C1(C)C"
group_label = "T"

